Test system: 958667-338-R-J2-PDC tumor spheroids viability
ASSAY COMMENT: Anticancer human tumor 958667-338-R-J2-PDC patient-derived colon adenocarcinoma cell line growth inhibition [PI3K]
CONDITION DESCRIPTION: curve of first compound; second compound 0.0316 µM; spheroids with HUVEC and MSC
pIC50: −log10 of the molar value.
MEASURED ATTRIBUTE: pIC50

# input Return the recorded pIC50 value; entry: CC(C)NCC(C(=O)N1CCN(c2ncnc3c2C(C)CC3O)CC1)c1ccc(Cl)cc1 (stereo unspecified) + Cc1nc(NC(=O)N2CCCC2C(N)=O)sc1-c1ccnc(C(C)(C)C(F)(F)F)c1
# output < 5.00

# input Return the recorded pIC50 value; entry: CC(=O)c1c(C)c2cnc(Nc3ccc(N4CCNCC4)cn3)nc2n(C2CCCC2)c1=O + COc1c(OCCCN2CCOCC2)ccc2c3n(c(=NC(=O)c4cnc(N)nc4)nc12)CCN3
# output < 7.00

# input Return the recorded pIC50 value; entry: CCCS(=O)(=O)Nc1ccc(F)c(C(=O)c2c[nH]c3ncc(-c4ccc(Cl)cc4)cc23)c1F + COc1c(OCCCN2CCOCC2)ccc2c3n(c(=NC(=O)c4cnc(N)nc4)nc12)CCN3
# output 5.30

# input Return the recorded pIC50 value; entry: Cn1nccc1Nc1nccc(-c2ccn(C(CO)c3ccc(Cl)c(F)c3)c(=O)c2)n1 (stereo unspecified) + Cc1nc(NC(=O)N2CCCC2C(N)=O)sc1-c1ccnc(C(C)(C)C(F)(F)F)c1
# output < 5.00

# input Return the recorded pIC50 value; entry: C[C@@H](NC(=O)c1ncnc(N)c1Cl)c1ncc(C(=O)Nc2cc(C(F)(F)F)c(Cl)cn2)s1 + CC(Nc1ccc2c(c1)OCCn1cc(N3C(=O)OCC3C(F)F)nc1-2)C(N)=O
# output < 5.00

# input Return the recorded pIC50 value; entry: Cn1cnc2c(F)c(Nc3ccc(Br)cc3Cl)c(C(=O)NOCCO)cc21 + CC(Nc1ccc2c(c1)OCCn1cc(N3C(=O)OCC3C(F)F)nc1-2)C(N)=O
# output 6.76

====

Overview of reported pIC50 across a group of compounds:
System: 958667-338-R-J2-PDC tumor spheroids viability
ASSAY COMMENT: Anticancer human tumor 958667-338-R-J2-PDC cell line growth inhibition [PI3K];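 note: spheroids exposed to compounds for seven days before readout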
CONDITION DESCRIPTION: curve of first compound; second compound 0.316 µM; spheroids with HUVEC and MSC
pIC50: −log10 of the molar value.

Answered examples (2):
COMPOUND: CCN1CCN(Cc2ccc(Nc3ncc(F)c(-c4cc(F)c5nc(C)n(C(C)C)c5c4)n3)nc2)CC1 + CC(Nc1ncnc2nc[nH]c12)c1cc2cccc(Cl)c2c(=O)n1-c1ccccc1
MEASURED RESULT: < 6.00
--
COMPOUND: Cn1nccc1Nc1nccc(-c2ccn(C(CO)c3ccc(Cl)c(F)c3)c(=O)c2)n1 (stereo not drawn) + Cc1nc(NC(=O)N2CCCC2C(N)=O)sc1-c1ccnc(C(C)(C)C(F)(F)F)c1
MEASURED RESULT: < 5.00

Turning now to a further record.
# input Return the recorded pIC50 value; entry: CC1(C)CCC(Nc2ncc(C(F)(F)F)c(-c3c[nH]c4c(P(C)(C)=O)c(C#N)ccc34)n2)CN1 (stereo not drawn) + Cc1nc(NC(=O)N2CCCC2C(N)=O)sc1-c1ccnc(C(C)(C)C(F)(F)F)c1
# output 5.39

====

Tested on: 958667-338-R-J2-PDC tumor spheroids viability
ASSAY COMMENT: Anticancer human tumor 958667-338-R-J2-PDC cell line growth inhibition [PI3K];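 note: spheroids exposed to compounds for seven days before readout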
CONDITION DESCRIPTION: second compound 1 µM; first compound 0.0316 µM; stronger effect = lower value; spheroids with HUVEC and MSC
MEASURED ATTRIBUTE: viability, T/C

MOLECULE: C[C@@H](NC(=O)c1ncnc(N)c1Cl)c1ncc(C(=O)Nc2cc(C(F)(F)F)c(Cl)cn2)s1 + CC(Nc1ccc2c(c1)OCCn1cc(N3C(=O)OCC3C(F)F)nc1-2)C(N)=O
viability, T/C: 61.2%

# input Return the recorded viability, T/C value; entry: Cn1ncc(Cl)c1-c1cc(C(=O)NC(CN)Cc2cccc(F)c2)sc1Cl (stereo not drawn) + Cc1nc(NC(=O)N2CCCC2C(N)=O)sc1-c1ccnc(C(C)(C)C(F)(F)F)c1
# output 71.7%

# input Return the recorded viability, T/C value; entry: CCN1CCN(Cc2ccc(Nc3ncc(F)c(-c4cc(F)c5nc(C)n(C(C)C)c5c4)n3)nc2)CC1 + Cc1nc(NC(=O)N2CCCC2C(N)=O)sc1-c1ccnc(C(C)(C)C(F)(F)F)c1
# output 72.8%

====

Tested on: 958667-338-R-J2-PDC tumor spheroids viability
ASSAY COMMENT: Anticancer human tumor 958667-338-R-J2-PDC cell line growth inhibition [PI3K];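 note: spheroids exposed to compounds for seven days before readout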
CONDITION DESCRIPTION: second compound 0.0316 µM; first compound 0.316 µM; stronger effect = lower value; spheroids with HUVEC and MSC
Overview of reported viability, T/C across a group of molecules:
Express it in %; write the number only.

Answered examples (3):
MOLECULE: CC(C)NCC(C(=O)N1CCN(c2ncnc3c2C(C)CC3O)CC1)c1ccc(Cl)cc1 (stereo not given) + COc1c(OCCCN2CCOCC2)ccc2c3n(c(=NC(=O)c4cnc(N)nc4)nc12)CCN3
EXPERIMENTAL TARGET: 958667-338-R-J2-PDC tumor spheroids viability
READING UNIT: %
viability, T/C: 67.8
//
MOLECULE: CCCS(=O)(=O)Nc1ccc(F)c(C(=O)c2c[nH]c3ncc(-c4ccc(Cl)cc4)cc23)c1F + COc1c(OCCCN2CCOCC2)ccc2c3n(c(=NC(=O)c4cnc(N)nc4)nc12)CCN3
EXPERIMENTAL TARGET: 958667-338-R-J2-PDC tumor spheroids viability
READING UNIT: %
viability, T/C: 74.5
//
MOLECULE: CNC(=O)c1ccc(N2C(=S)N(c3ccc(C#N)c(C(F)(F)F)c3)C(=O)C2(C)C)cc1F + CC(Nc1ncnc2nc[nH]c12)c1cc2cccc(Cl)c2c(=O)n1-c1ccccc1
EXPERIMENTAL TARGET: 958667-338-R-J2-PDC tumor spheroids viability
READING UNIT: %
viability, T/C: 105

# input Return the recorded viability, T/C value; entry: CCCS(=O)(=O)Nc1ccc(F)c(C(=O)c2c[nH]c3ncc(-c4ccc(Cl)cc4)cc23)c1F + CC(Nc1ncnc2nc[nH]c12)c1cc2cccc(Cl)c2c(=O)n1-c1ccccc1
# output 99.8

# input Return the recorded viability, T/C value; entry: CC(Cn1ccc(-c2ccc(C#N)c(Cl)c2)n1)NC(=O)c1cc(C(C)O)[nH]n1 (stereo not given) + CC(Nc1ncnc2nc[nH]c12)c1cc2cccc(Cl)c2c(=O)n1-c1ccccc1
# output 85.5

====

Tested on: 958667-338-R-J2-PDC tumor spheroids viability
ASSAY COMMENT: Anticancer human tumor 958667-338-R-J2-PDC cell line growth inhibition [PI3K];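 note: spheroids exposed to compounds for seven days before readout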
CONDITION DESCRIPTION: second compound 1 µM; first compound 1 µM; stronger effect = lower value; spheroids with HUVEC and MSC
Source text: Combinatorial screen of targeted agents with the PI3K inhibitors inavolisib, alpelisib, duvelisib, and copanlisib in multi-cell type tumor spheroids A high-throughput screen of multi-cell type tumor spheroids was designed to identify active combinations of targeted small molecules and PI3K pathway inhibitors. […] Compounds. […] If the clinical Cmax for an agent had not been determined, the highest concentration tested was 10 microM. […]
MEASURED ATTRIBUTE: viability, T/C

Answered examples (8):
COMPOUND: CNC(=O)c1ccc(N2C(=S)N(c3ccc(C#N)c(C(F)(F)F)c3)C(=O)C2(C)C)cc1F + Cc1nc(NC(=O)N2CCCC2C(N)=O)sc1-c1ccnc(C(C)(C)C(F)(F)F)c1
viability, T/C: 70.8%
//
COMPOUND: CCCS(=O)(=O)Nc1ccc(F)c(C(=O)c2c[nH]c3ncc(-c4ccc(Cl)cc4)cc23)c1F + COc1c(OCCCN2CCOCC2)ccc2c3n(c(=NC(=O)c4cnc(N)nc4)nc12)CCN3
viability, T/C: 20.8%
//
COMPOUND: Cn1nccc1Nc1nccc(-c2ccn(C(CO)c3ccc(Cl)c(F)c3)c(=O)c2)n1 (centres undefined) + CC(Nc1ccc2c(c1)OCCn1cc(N3C(=O)OCC3C(F)F)nc1-2)C(N)=O
viability, T/C: 53.6%
//
COMPOUND: CC1(C)CCC(CN2CCN(c3ccc(C(=O)NS(=O)(=O)c4ccc(NCC5CCOCC5)c([N+](=O)[O-])c4)c(Oc4cnc5[nH]ccc5c4)c3)CC2)=C(c2ccc(Cl)cc2)C1 + COc1c(OCCCN2CCOCC2)ccc2c3n(c(=NC(=O)c4cnc(N)nc4)nc12)CCN3
viability, T/C: 21.9%
//
COMPOUND: C#Cc1c(F)ccc2cc(O)cc(-c3ncc4c(N5CC6CCC(C5)N6)nc(OCC56CCCN5CC(F)C6)nc4c3F)c12 (centres undefined) + CC(Nc1ncnc2nc[nH]c12)c1cc2cccc(Cl)c2c(=O)n1-c1ccccc1
viability, T/C: 84.8%
//
COMPOUND: CC(C)NCC(C(=O)N1CCN(c2ncnc3c2C(C)CC3O)CC1)c1ccc(Cl)cc1 (centres undefined) + Cc1nc(NC(=O)N2CCCC2C(N)=O)sc1-c1ccnc(C(C)(C)C(F)(F)F)c1
viability, T/C: 75.5%
//
COMPOUND: C[C@@H](NC(=O)c1ncnc(N)c1Cl)c1ncc(C(=O)Nc2cc(C(F)(F)F)c(Cl)cn2)s1 + CC(Nc1ccc2c(c1)OCCn1cc(N3C(=O)OCC3C(F)F)nc1-2)C(N)=O
viability, T/C: 64.3%
//
COMPOUND: Cn1nccc1Nc1nccc(-c2ccn(C(CO)c3ccc(Cl)c(F)c3)c(=O)c2)n1 (centres undefined) + COc1c(OCCCN2CCOCC2)ccc2c3n(c(=NC(=O)c4cnc(N)nc4)nc12)CCN3
viability, T/C: 13.6%

# input Return the recorded viability, T/C value; entry: CC1(C)CCC(CN2CCN(c3ccc(C(=O)NS(=O)(=O)c4ccc(NCC5CCOCC5)c([N+](=O)[O-])c4)c(Oc4cnc5[nH]ccc5c4)c3)CC2)=C(c2ccc(Cl)cc2)C1 + CC(Nc1ncnc2nc[nH]c12)c1cc2cccc(Cl)c2c(=O)n1-c1ccccc1
# output 100%
